Listed below: pKi values for each entry.
tested system: human CB1R (Homo sapiens, UniProt P21554)
Sequence (P21554 whole entry): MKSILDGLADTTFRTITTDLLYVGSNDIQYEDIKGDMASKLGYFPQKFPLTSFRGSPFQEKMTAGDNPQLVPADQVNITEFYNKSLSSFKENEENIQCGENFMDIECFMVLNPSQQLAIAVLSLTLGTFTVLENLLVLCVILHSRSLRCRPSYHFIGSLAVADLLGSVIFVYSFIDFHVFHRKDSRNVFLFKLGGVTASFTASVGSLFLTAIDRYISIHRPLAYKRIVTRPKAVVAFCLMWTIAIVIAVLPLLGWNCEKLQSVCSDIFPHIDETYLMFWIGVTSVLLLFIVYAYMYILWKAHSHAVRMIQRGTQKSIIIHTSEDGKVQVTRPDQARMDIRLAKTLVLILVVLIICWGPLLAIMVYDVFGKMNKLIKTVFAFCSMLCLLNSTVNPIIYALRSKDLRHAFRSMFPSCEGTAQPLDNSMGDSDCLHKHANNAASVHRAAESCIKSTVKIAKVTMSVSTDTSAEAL
protocol: In vitro CB receptor affinity assay, displacement of [3H]CP55,940, CHO cells transfected with human CB1R
Assay type: binding
conditions: [3H]CP55,940 displacement, hCB1R CHO cells; read-out: Ki CB1R
pKi: −log10 of the molar value.

{"test smiles": "CCn1c2ccccc2c2cc(NC(=O)CCc3nc(-c4ccc(F)cc4Br)no3)ccc21", "pKi": "< 6.00"}
{"test smiles": "O=C(O)CCc1nc(-c2ccc(F)cc2Br)no1", "pKi": "< 6.00"}

====

protocol: HPLC-based logD determination
Format: physicochemical
conditions: RP-HPLC, Reprosil-Pur C18-AQ column, gradient 10% to 90% MeCN/20 mM NH4OAc, reference compounds, n = 3 to 6, read-out: logD Reposil-Pur C18-AQ Gradient
observed property: chromatographic logD

{"test smiles": "O=C(CCc1nc(-c2ccc(F)cc2Br)no1)Nc1ccc2c(c1)c1ccccc1n2CCF", "measurement": 3.82}

Data credit: paper PMC3856494
